- assay: Quantitative High-Throughput drug screen in 47 multiple myeloma cell lines against the NCATS MIPE library collection: KMS20_JCRB cell viability assay (AID 1918973); further: nearly all actives have a fitted effect of over 45% in size; further: potency means the concentration at half of the fitted maximal effect
- measurementConditions: CellTiter-Glo ATP, 48 h; series mostly up to 45.8 µM
Inconclusive results are not listed. Activity calls are given as the source filed them. The call rests on the fitted dose curve; in most records, active means well fitted cell-killing curve with a large enough effect; inconclusive means small, poorly fitted or top-dose-only effect, or effect the other way; inactive means no such curve, though single readings can be large or run the other way.
assayEndpoint: Potency

# annotated cases, reported Potency shown
> print(dat)
                                   compound          measvalue
1      Oc1ccc(C2CCN(c3ccnc4ccccc34)CC2)cc1O   18.7 µM (active)
2    N#Cc1ccc(NC(=O)Nc2ccccc2Br)c2n[nH]nc12           inactive
3  C[C@]12CC[C@@H]3c4ccc(O)cc4CC[C@H]3[C@H]1C[C@@H](O)[C@H]2O           inactive
4  CO[C@H]1C=CC=C(C)C(=O)NC2=CC(=O)C(NCCN(C)C)=C(C[C@@H](C)C[C@H](OC)[C@@H](O)[C@@H](C)C=C(C)[C@@H]1OC(N)=O)C2=O  0.001 µM (active)
5  CN1C[C@H]2c3ccccc3Oc3ccc(Cl)cc3[C@@H]2C1           inactive
6             Oc1ccc(C2=Cc3ccc(O)cc3OC2)cc1   3.32 µM (active)

[Q] Quick check: Potency of CC(C(=O)O)c1ccc(-c2ccccc2)c(F)c1 (stereo not given) ?
[A] 4.69 µM (active)

[Q] Would you kindly repeat that for `CC(C)=CC[C@@H](O)C1=CC(=O)c2c(O)ccc(O)c2C1=O` ?
[A] 14.8 µM (active)

[Q] Would you kindly repeat that for `COc1cc2ncnc(-n3nc(-c4ccccn4)nc3N)c2cc1OC` ?
[A] 6.62 µM (active)

[Q] Would you kindly repeat that for CCNc1cc(NC2CCC(O)CC2)nc(Nc2ccc3c(ccn3Cc3ccccc3)c2)n1 (stereo not given) ?
[A] 37.2 µM (active)

====

- assay: qHTS Assay for Lipid Storage Modulators (AID 1519); further: on the % scale 0 is the no-effect control and ±100 the full control effect
- measurementConditions: Drosophila S3 cells, BODIPY lipid droplet/cell ratio, laser cytometry; at 57.5 µM (top of the series); cells loaded with oleic acid
Results filed as inconclusive are left out.
assayEndpoint: activity change, negative = inhibition (%)
All answers are understood in %, so give the number only.

[Q] Quick check: activity change, negative = inhibition of COc1ccc2c3c1OC1C[C@@H](O)C=C[C@@]31CCN(C)C2 (some centres undefined) ?
[A] -3.75

[Q] Would you kindly repeat that for `COc1cc(O)c2c(c1)C(=O)c1cc(C)cc(O)c1C2=O` ?
[A] 2.34

[Q] Would you kindly repeat that for `O=c1c(O)c(-c2ccc(O)cc2)oc2cc(O)cc(O)c12` ?
[A] 9.57

[Q] Would you kindly repeat that for `CC(C)[C@H](CO)Nc1nc(Nc2ccc(C(=O)O)c(Cl)c2)c2ncn(C(C)C)c2n1` ?
[A] 6.65

[Q] Would you kindly repeat that for `CC/C(=C(\c1ccccc1)c1ccc(OCCN(C)C)cc1)c1ccccc1` ?
[A] 6.58

[Q] Would you kindly repeat that for `COc1ccccc1N1CCN(CCCNc2cc(=O)n(C)c(=O)n2C)CC1` ?
[A] 1.54

[Q] Would you kindly repeat that for CC(C)(C)c1ccc(C(O)CCCN2CCC(C(O)(c3ccccc3)c3ccccc3)CC2)cc1 (centres undefined) ?
[A] -1.34

[Q] Would you kindly repeat that for CC(C)NCC(O)COc1cccc2[nH]ccc12 (centres undefined) ?
[A] 10.5

[Q] Would you kindly repeat that for C[C@]12CCC3c4ccc(O)cc4CCC3C1CCC2=O (some centres undefined) ?
[A] 3.27

====

- assay: Quantitative High-Throughput drug screen in 47 multiple myeloma cell lines against the NCATS MIPE library collection: Karpas25_ECACC cell viability assay (AID 1918968; further: nearly all actives have a fitted effect of over 35% in size)
- measurementConditions: Karpas25 myeloma viability, CellTiter-Glo ATP, 48 h; series mostly up to 45.8 µM
Records with an inconclusive call do not appear. Active and inactive are the calls of the source. Calls follow the shape of the dose curve; as a rule, active = well fitted cell-killing curve with a large enough effect; inconclusive = small, poorly fitted or top-dose-only effect, or effect the other way; inactive = no such curve, though single readings can be large or run the other way.
The reply should name one outcome from active, inactive

[Q] Fill in: this test's call for COc1ccc2cc(-c3nc(-c4ccc(S(C)=O)cc4)[nH]c3-c3ccncc3)ccc2c1 (stereo unspecified) is ___
[A] active

[Q] Would you kindly repeat that for `CCOC(=O)O[C@]1(C(=O)OCCl)CC[C@@H]2[C@H]3CCC4=CC(=O)C=C[C@]4(C)[C@@H]3[C@@H](O)C[C@@]21C` ?
[A] active

[Q] Would you kindly repeat that for `Cc1c(O)cccc1C(=O)N[C@@H](CSc1ccccc1)[C@H](O)CN1C[C@H]2CCCC[C@@H]2C[C@@H]1C(=O)NC(C)(C)C` ?
[A] active

[Q] Would you kindly repeat that for `CC=CC(=O)N(CC)c1ccccc1C` ?
[A] inactive

[Q] Would you kindly repeat that for `NC(CO)(CO)CCc1ccc(Sc2cccc(OCc3ccccc3)c2)cc1Cl` ?
[A] active

[Q] Would you kindly repeat that for `COc1cc2ncnc(Nc3ccc(F)c(Cl)c3)c2cc1OCCCN1CCOCC1` ?
[A] active

[Q] Would you kindly repeat that for `Cc1cc(OCCCc2c(C(=O)O)n(Cc3cccnc3)c3c(-c4c(COc5ccc(N6CCN([S+](C)(=O)[O-])CC6)cc5)nn(C)c4C)cccc23)cc(C)c1Cl` ?
[A] active

[Q] Would you kindly repeat that for `O=C(Nc1cccc(Br)c1)c1cccc(S(=O)(=O)N2CCCCCC2)c1` ?
[A] active

[Q] Would you kindly repeat that for CCCCCNC(=O)N1CCC(CN(Cc2ccc(Cl)cc2)Cc2ccc([N+](=O)[O-])s2)C1 (stereo unspecified) ?
[A] active

[Q] Would you kindly repeat that for `CC(=O)Nc1ccc([C@H](C)C(=O)Nc2ncc(C(C)C)s2)cc1` ?
[A] active

[Q] Would you kindly repeat that for `O=C(N[C@@H](c1ccccc1)[C@@H]1CCCCN1)c1cccc(C(F)(F)F)c1Cl` ?
[A] inactive

[Q] Would you kindly repeat that for O=c1c(-c2ccc(O)cc2)coc2cc(OC3O[C@H](CO)[C@H](O)[C@H](O)[C@H]3O)cc(O)c12 (stereo partly specified) ?
[A] active

[Q] Would you kindly repeat that for `CN(C)Cc1ccc(-c2nc3cccc4c3n2CCNC4=O)cc1` ?
[A] active

[Q] Would you kindly repeat that for `COc1ccc(-c2coc3cc(O)cc(O)c3c2=O)cc1` ?
[A] inactive

[Q] Would you kindly repeat that for `CC[C@H]1OC(=O)[C@H](C)[C@@H](O[C@H]2C[C@@](C)(OC)[C@@H](O)[C@H](C)O2)[C@H](C)[C@@H](O[C@@H]2O[C@H](C)C[C@H](N(C)C)[C@@H]2O)[C@](C)(O)C[C@@H](C)CN(C)[C@H](C)[C@@H](O)[C@]1(C)O` ?
[A] inactive

[Q] Would you kindly repeat that for `COc1cc(Nc2ncc(F)c(Nc3ccc4c(n3)NC(=O)C(C)(C)O4)n2)cc(OC)c1OC` ?
[A] active

[Q] Would you kindly repeat that for `O=C(NCc1ccccc1)c1csc(Nc2ccncn2)n1` ?
[A] active

[Q] Would you kindly repeat that for `CC#CCn1c(N2CCC[C@@H](N)C2)nc2c1c(=O)n(Cc1nc(C)c3ccccc3n1)c(=O)n2C` ?
[A] active

[Q] Would you kindly repeat that for `COc1cc2c(cc1OC)CN(CCc1ccc(NC(=O)c3cc(OC)c(OC)cc3NC(=O)c3cnc4ccccc4c3)cc1)CC2` ?
[A] active

[Q] Would you kindly repeat that for `CC[C@@]1(O)C[C@H](O[C@H]2C[C@H](N(C)C)[C@H](O[C@H]3C[C@H](O)[C@H](O[C@H]4CCC(=O)[C@H](C)O4)[C@H](C)O3)[C@H](C)O2)c2c(cc3c(c2O)C(=O)c2c(O)cccc2C3=O)[C@@H]1C(=O)OC` ?
[A] active

[Q] Would you kindly repeat that for `Cc1c(NC(=O)c2ccc(C(C)(C)C)cc2)cccc1-c1cn(C)c(=O)c(Nc2ccc(C(=O)N3CCOCC3)cc2)n1` ?
[A] active

[Q] Would you kindly repeat that for `COc1cc2nc(-c3ccc(N4CCN(C)CC4)cc3)nc(NCCN3CCOCC3)c2cc1OC` ?
[A] active

[Q] Would you kindly repeat that for `CO[C@H]1C=CC=C(C)C(=O)NC2=CC(=O)C(NCCN(C)C)=C(C[C@@H](C)C[C@H](OC)[C@@H](O)[C@@H](C)C=C(C)[C@@H]1OC(N)=O)C2=O` ?
[A] active

[Q] Would you kindly repeat that for `COc1cc2ncnc(-n3nc(-c4ccccn4)nc3N)c2cc1OC` ?
[A] active

[Q] Would you kindly repeat that for `COc1ccc2cccc(CCNC(C)=O)c2c1` ?
[A] inactive

[Q] Would you kindly repeat that for COCCOC(=O)C1=C(C)NC2=C(C(=O)CC(c3ccccc3OC)C2)C1c1cccc(O)c1 (stereo unspecified) ?
[A] active

[Q] Would you kindly repeat that for `O=C(O)[C@H]1O[C@H](Oc2cc3oc(-c4ccccc4)cc(=O)c3c(O)c2O)[C@H](O)[C@@H](O)[C@H]1O` ?
[A] inactive

[Q] Would you kindly repeat that for `O=c1cc(-c2ccc(O)cc2)oc2cc(O)cc(O)c12` ?
[A] active

[Q] Would you kindly repeat that for `NC(=O)NN=Cc1ccc([N+](=O)[O-])o1` ?
[A] active

[Q] Would you kindly repeat that for Clc1ccc(CCC(Cn2ccnc2)Sc2c(Cl)cccc2Cl)cc1 (stereo unspecified) ?
[A] active

[Q] Would you kindly repeat that for `NC1=N[C@@]2(c3cc(NC(=O)c4ccc(F)cn4)ccc3F)COC[C@@H]2CS1` ?
[A] active

[Q] Would you kindly repeat that for `CC(=O)N(C)C1(c2ccccc2)CCN(CCC[C@]2(c3ccc(Cl)c(Cl)c3)CCCN(C(=O)c3ccccc3)C2)CC1` ?
[A] active

[Q] Would you kindly repeat that for `CCC(CC)[C@H](NC(C)=O)[C@@H]1[C@H](O)[C@@H](C(=O)O)C[C@@H]1N=C(N)N` ?
[A] inactive

[Q] Would you kindly repeat that for `COc1ccc(-c2coc3cc(O)ccc3c2=O)cc1` ?
[A] inactive

[Q] Would you kindly repeat that for CC(C(=O)O)c1ccc(-c2ccccc2)c(F)c1 (stereo unspecified) ?
[A] active

[Q] Would you kindly repeat that for `COc1ccc(-c2cc(=O)c3c(O)cc(O)cc3o2)cc1O` ?
[A] active
